From: patent US20210024639A1

Target: T1, mouse MET-Fc chimeric protein (R&D Systems) (mouse, UniProt P16056 25-929, limits assumed)
T1 construct: bought (R&D Systems); also called mMET; not shown: Fc
T1 sequence (P16056 25-929 limits assumed, change not shown): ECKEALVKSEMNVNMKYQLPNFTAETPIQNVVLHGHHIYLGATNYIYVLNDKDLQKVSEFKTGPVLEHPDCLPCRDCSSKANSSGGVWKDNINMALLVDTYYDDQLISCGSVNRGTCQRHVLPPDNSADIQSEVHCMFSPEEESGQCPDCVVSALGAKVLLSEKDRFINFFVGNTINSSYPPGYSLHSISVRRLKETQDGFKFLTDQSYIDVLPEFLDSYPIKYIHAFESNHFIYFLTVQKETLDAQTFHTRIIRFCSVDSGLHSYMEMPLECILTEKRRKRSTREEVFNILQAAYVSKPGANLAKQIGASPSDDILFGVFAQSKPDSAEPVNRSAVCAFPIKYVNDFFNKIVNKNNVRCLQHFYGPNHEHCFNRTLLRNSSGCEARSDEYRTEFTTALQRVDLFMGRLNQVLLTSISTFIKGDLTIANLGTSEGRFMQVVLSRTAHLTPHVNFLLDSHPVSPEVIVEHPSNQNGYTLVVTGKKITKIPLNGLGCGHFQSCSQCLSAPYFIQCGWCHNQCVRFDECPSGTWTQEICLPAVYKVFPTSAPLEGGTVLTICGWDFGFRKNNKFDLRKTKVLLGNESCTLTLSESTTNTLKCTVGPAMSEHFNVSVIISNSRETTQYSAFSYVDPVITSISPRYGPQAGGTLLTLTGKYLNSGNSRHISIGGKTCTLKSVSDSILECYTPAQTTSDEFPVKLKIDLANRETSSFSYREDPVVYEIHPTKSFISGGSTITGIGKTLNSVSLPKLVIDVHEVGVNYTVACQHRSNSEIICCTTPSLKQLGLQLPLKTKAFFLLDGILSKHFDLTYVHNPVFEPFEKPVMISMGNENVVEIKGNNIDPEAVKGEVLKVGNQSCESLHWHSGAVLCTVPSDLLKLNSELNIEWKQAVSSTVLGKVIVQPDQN
Assay: competition ELISA, mMET-Fc in solid phase, competitor 0.3 nM biotinylated mHGF
Protocol: To investigate along this line, we tested the competition between mAbs and HGF by ELISA. Recombinant human and mouse HGF (R&D Systems) were biotinylated at the N-terminus using NHS-LC-biotin (Thermo Scientific). MET-Fc protein, either human or mouse (R&D Systems), was immobilized in solid phase and then exposed to 0.3 nM biotinylated HGF, either human or mouse, in the presence of increasing concentrations of antibodies (0-120 nM). […]
Measurement Label: IMAX (maximum % competition)
Hey, just the number and the unit after it is fine.

1) chimeric llama-human IgG1 mAb 71D4 (antibody, V domains shown) VH: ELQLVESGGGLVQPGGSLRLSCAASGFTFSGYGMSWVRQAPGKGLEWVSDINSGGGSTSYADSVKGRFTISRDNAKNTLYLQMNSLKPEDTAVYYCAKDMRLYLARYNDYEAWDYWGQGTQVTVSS VL: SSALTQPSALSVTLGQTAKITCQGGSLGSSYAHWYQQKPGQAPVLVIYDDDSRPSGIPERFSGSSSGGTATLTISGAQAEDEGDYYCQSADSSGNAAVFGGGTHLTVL: 91.3%
2) chimeric llama-human IgG1 mAb 76H10 (antibody, V domains shown) VH: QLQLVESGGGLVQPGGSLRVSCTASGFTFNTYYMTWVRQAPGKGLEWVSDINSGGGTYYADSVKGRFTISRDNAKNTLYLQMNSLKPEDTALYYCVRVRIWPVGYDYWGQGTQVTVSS VL: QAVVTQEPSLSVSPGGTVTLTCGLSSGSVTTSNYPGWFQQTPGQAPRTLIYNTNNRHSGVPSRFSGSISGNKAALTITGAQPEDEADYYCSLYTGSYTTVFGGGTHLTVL: 62.7%
3) chimeric llama-human IgG1 mAb 71D6 (antibody, V domains shown) VH: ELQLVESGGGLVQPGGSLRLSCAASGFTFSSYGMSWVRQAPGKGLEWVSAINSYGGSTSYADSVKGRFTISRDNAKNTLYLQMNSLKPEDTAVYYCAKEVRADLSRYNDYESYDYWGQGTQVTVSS VL: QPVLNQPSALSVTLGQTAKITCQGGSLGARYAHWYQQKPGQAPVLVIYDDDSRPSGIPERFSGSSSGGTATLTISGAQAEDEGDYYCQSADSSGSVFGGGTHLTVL: 90.5%
4) chimeric llama-human IgG1 mAb 71C3 (antibody, V domains shown) VH: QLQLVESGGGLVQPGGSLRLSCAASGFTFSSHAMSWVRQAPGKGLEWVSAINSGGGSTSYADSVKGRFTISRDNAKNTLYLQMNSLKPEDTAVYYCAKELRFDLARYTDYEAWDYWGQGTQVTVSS VL: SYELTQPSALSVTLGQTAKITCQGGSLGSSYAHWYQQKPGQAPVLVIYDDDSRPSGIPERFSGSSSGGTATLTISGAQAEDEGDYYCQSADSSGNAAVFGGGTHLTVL: 89.2%
5) chimeric llama-human IgG1 mAb 74C8 (antibody, V domains shown) VH: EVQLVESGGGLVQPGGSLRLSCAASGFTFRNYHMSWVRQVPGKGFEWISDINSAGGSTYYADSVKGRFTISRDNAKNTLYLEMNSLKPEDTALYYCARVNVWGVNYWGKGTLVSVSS VL: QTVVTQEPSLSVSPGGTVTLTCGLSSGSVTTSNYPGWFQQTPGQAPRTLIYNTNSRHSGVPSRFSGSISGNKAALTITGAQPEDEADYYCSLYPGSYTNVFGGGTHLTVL: 71.5%

Then this binder:
Q: Input chimeric llama-human IgG1 mAb 71G3 (antibody, V domains shown) VH: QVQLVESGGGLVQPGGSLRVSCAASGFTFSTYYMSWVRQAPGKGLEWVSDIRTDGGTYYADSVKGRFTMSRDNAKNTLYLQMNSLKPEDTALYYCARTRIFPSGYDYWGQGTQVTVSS VL: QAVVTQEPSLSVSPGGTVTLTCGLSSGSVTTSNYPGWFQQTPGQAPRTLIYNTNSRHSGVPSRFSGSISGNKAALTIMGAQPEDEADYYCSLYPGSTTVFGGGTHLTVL , output reported IMAX (maximum % competition).
Ans: 62.9%
